# Test system: Candida albicans multidrug efflux pump MDR1 (expressed in S. cerevisiae AD1-8u)
# Experiment description: CaMdr1 pump blockers in yeast – flow cytometry, singleplex, Cherry Pick1 set, confirmation (AID 588518);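 note: 0% = DMSO vehicle and 100% = reference inhibitor; higher means more Nile Red retained so more efflux inhibition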
# Settings: S. cerevisiae AD/CaMDR1, Nile Red efflux, at 10 µM, stronger effect = higher value
In all, about 1,700 compounds went through this assay and about 20 (1%) were called active. The full list was thinned out, with actives kept by preference.
In this section, each of the compounds is paired with its reported inhibition.
Kindly answer with a numeric value in %, unit omitted.

Check out these entries, answers already filled in.
CCNc1c(NS(=O)(=O)c2ccc(C3CCCCC3)cc2)c(=O)oc2ccccc12: -0.16
C[n+]1ccc(/C=C/c2c[nH]c3ccccc23)cc1: 5.81
CC(/C=C/c1ccccc1)=N\NC(=O)C1CC1(C)c1ccccc1 (stereo unspecified): -0.16

Would you kindly share the measured inhibition for `O=C(Cn1c(COc2ccccc2)nc2ccccc21)Nc1cc(Cl)c(Cl)cc1Cl` ?
0.02

Name the recorded inhibition for `COc1ccc(-c2sc3ccccc3c2-c2ccc(OCCN3CCOCC3)cc2)cc1` .
0.1

---

# Tested on: Candida albicans multidrug efflux pump MDR1 (expressed in S. cerevisiae AD1-8u)
# Experiment description: CaMdr1 pump blockers in yeast – flow cytometry, singleplex, Cherry Pick1 set, confirmation (AID 588518);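 note: 0% = DMSO vehicle and 100% = reference inhibitor; higher means more Nile Red retained so more efflux inhibition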
# Settings: S. cerevisiae AD/CaMDR1, Nile Red efflux, at 10 µM, stronger effect = higher value
Among all 1,700 compounds or so, about 20 (1%) were called active. Many of the other results were omitted from the sample, so actives are more common in it than they were.
Consider the following compounds and their measured inhibition readings.
Use % as the unit, but write only the number.

CC[n+]1cc(C)ccc1/C=C/c1ccc(N(C)C)cc1: 10.7
CCCCN1C(=O)/C(=C/C=C2/C=Cc3ccccc3N2CC)SC1=S: -0.28
Cc1nn(C)cc1N1C(=O)c2cccc3c(N)ccc(c23)C1=O: 0.11

inhibition for `CCCc1nnc(SCC(=O)Nc2ccc(C(=O)OCC)cc2)o1` ?
0.19

Quick one: inhibition for `Cc1ccc2[nH]c3c(=O)n(CC(=O)NCCc4ccc(Cl)cc4)ncc3c2c1` ?
-0.13

---

# Tested on: Candida albicans multidrug efflux pump MDR1 (expressed in S. cerevisiae AD1-8u)
# Experiment description: CaMdr1 pump blockers in yeast – flow cytometry, singleplex, Cherry Pick1 set, confirmation (AID 588518);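 note: 0% = DMSO vehicle and 100% = reference inhibitor; higher means more Nile Red retained so more efflux inhibition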
# Settings: S. cerevisiae AD/CaMDR1, Nile Red efflux, at 10 µM, stronger effect = higher value
Screen size: about 1,700 compounds; about 20 (1%) were called active. Many of the other results were omitted from the sample, so actives are more common in it than they were.
The reader will find reported inhibition values listed item by item below.
# value in %; strip the unit string

The cases that follow already have their inhibition on record.
COc1ccc(C(=O)NC(=S)Nc2ccc(N3CCCC3)cc2)cc1OC: -0.18
O=C(/C=C/c1c(Cl)cccc1Cl)NCc1ccccc1: 0.02
C/C(N)=C(/C#N)C(=O)COC(=O)c1cc(-c2cccc(Br)c2)nc2ccccc12: -0.13
CCn1c(/C=C/c2ccc([N+](=O)[O-])o2)nc2ccccc2c1=O: 1.88
CCOc1ccc2nc(Cl)c(C3CC(c4ccccc4)=NN3C(=O)c3cccs3)cc2c1 (stereo unspecified): 0

Switching to the query record.
State its inhibition on Candida albicans multidrug efflux pump MDR1 (expressed in S. cerevisiae AD1-8u): `Cc1ccc(OCc2cc(C(=O)N(C)CCc3ccccc3)no2)cc1C`
-0.03
